ADF, Percent Increase Over the Untreated Check (on a % dry matter basis) for assorted compounds
System: kale 'Red Russian'
Assay: Content analysis of kale: protein, amino acids, fiber, fatty acids, minerals (Example 4, Tables 12-14)
Assay type: in vivo
Details: 28 DA-A, rates g ai/ha: chlropyrifos 3370, chlorothalonil 7900, paclobutrazol 9.7, mepiquat-chloride 37, + NIS 0.25 % v/v
Measured Property: ADF, Percent Increase Over the Untreated Check (on a % dry matter basis) (% check)

> print(dat)
                                   compound  measured
1  CC(C)(C)[C@@H](O)[C@@H](Cc1ccc(Cl)cc1)n1cncn1 (racemic) [paclobutrazol]        −1
2  CCOP(=S)(OCC)Oc1nc(Cl)c(Cl)cc1Cl [chlropyrifos]         9
3       C[N+]1(C)CCCCC1 [mepiquat-chloride]        −2
4  N#Cc1c(Cl)c(Cl)c(Cl)c(C#N)c1Cl [chlorothalonil]         0

====

Tested on: basil 'Genovese'
Test: Content analysis of basil: protein, minerals (Example 4, Tables 10-11)
Format: in vivo
Settings: 28 DA-A, rates g ai/ha: chlropyrifos 1120, chlorothalonil 2630, paclobutrazol 3.23, mepiquat-chloride 12.3, Isoxadifen 8, Napthalic anhydride 264, + NIS 0.25 % v/v
Manganese, Percent Increase Over the Untreated Check (on a % dry matter basis) for assorted molecules
Measured Property: Manganese, Percent Increase Over the Untreated Check (on a % dry matter basis) (% check)

> print(dat)
                                   molecule   subject.of.test  measured
1            N#Cc1c(Cl)c(Cl)c(Cl)c(C#N)c1Cl  basil 'Genovese'        43
2          CCOP(=S)(OCC)Oc1nc(Cl)c(Cl)cc1Cl  basil 'Genovese'        28
3  CC(C)(C)[C@@H](O)[C@@H](Cc1ccc(Cl)cc1)n1cncn1 (racemic)  basil 'Genovese'        26
4      CCOC(=O)C1=NOC(c2ccccc2)(c2ccccc2)C1  basil 'Genovese'        10
5       C[N+]1(C)CCCCC1 [mepiquat-chloride]  basil 'Genovese'        61
6  O=C1OC(=O)c2cccc3cccc1c23 [napthalic anhydride]  basil 'Genovese'        37

====

System: kale 'Red Russian'
Experiment: Content analysis of kale: protein, amino acids, fiber, fatty acids, minerals (Example 4, Tables 12-14)
Type: in vivo
Details: 28 DA-A, second-listed rate g ai/ha: chlropyrifos ###, chlorothalonil ###, paclobutrazol 9.7, mepiquat-chloride 37, + NIS 0.3 % v/v
Measured Property: Leucine, Percent Increase over the Untreated Check (on a % dry matter basis) (% check)

> print(dat)
                                   compound  measured
1  N#Cc1c(Cl)c(Cl)c(Cl)c(C#N)c1Cl [chlorothalonil]        −1
2       C[N+]1(C)CCCCC1 [mepiquat-chloride]        −4
3  CC(C)(C)[C@@H](O)[C@@H](Cc1ccc(Cl)cc1)n1cncn1 (racemic) [paclobutrazol]         5
4  CCOP(=S)(OCC)Oc1nc(Cl)c(Cl)cc1Cl [chlropyrifos]         6

====

Test system: basil 'Genovese'
Assay: Content analysis of basil: protein, minerals (Example 4, Tables 10-11)
Type: in vivo
Details: 28 DA-A, rates g ai/ha: chlroprifos 3370, chlorothalonil 7900, paclobutrazol 9.7, mepiquat-chloride 37, Isoxadifen 16, Napthalic anhydride 527, + NIS 0.25 % v/v
Potassium, Percent Increase Over the Untreated Check (on a % dry matter basis) for assorted compounds
Measured Property: Potassium, Percent Increase Over the Untreated Check (on a % dry matter basis) (% check)

> print(dat)
                                   compound   subject.of.test  measured
1       C[N+]1(C)CCCCC1 [mepiquat-chloride]  basil 'Genovese'        −3
2  O=C1OC(=O)c2cccc3cccc1c23 [napthalic anhydride]  basil 'Genovese'       −23
3  CC(C)(C)[C@@H](O)[C@@H](Cc1ccc(Cl)cc1)n1cncn1 (racemic)  basil 'Genovese'        −5
4      CCOC(=O)C1=NOC(c2ccccc2)(c2ccccc2)C1  basil 'Genovese'        16
5            N#Cc1c(Cl)c(Cl)c(Cl)c(C#N)c1Cl  basil 'Genovese'         7
6          CCOP(=S)(OCC)Oc1nc(Cl)c(Cl)cc1Cl  basil 'Genovese'        27

====

Phytotoxicity General for assorted compounds
Test system: kale 'Red Russian'
Assay: Visual injury of kale after insecticide, fungicide, PGRs, safeners (Example 4)
Details: 14 DA-A, rates g ai/ha: chlropyrifos 1120, chlorothalonil 2630, paclobutrazol 3.23, mepiquat-chloride 12.3, + NIS 0.25 % v/v
Measured Property: Phytotoxicity General

> print(dat)
                                   compound      measured.property  measured
1            N#Cc1c(Cl)c(Cl)c(Cl)c(C#N)c1Cl  Phytotoxicity General        0%
2       C[N+]1(C)CCCCC1 [mepiquat-chloride]  Phytotoxicity General        1%
3  CC(C)(C)[C@@H](O)[C@@H](Cc1ccc(Cl)cc1)n1cncn1 (racemic)  Phytotoxicity General        3%
4          CCOP(=S)(OCC)Oc1nc(Cl)c(Cl)cc1Cl  Phytotoxicity General        4%

====

Test system: basil 'Genovese'
Experiment: Visual injury of basil after insecticide, fungicide, PGRs, safeners (Example 4)
Details: 14 DA-A, rates g ai/ha: chlropyrifos 3370, chlorothalonil 7900, paclobutrazol 9.7, mepiquat-chloride 37, Isoxadifen 16, Napthalic anhydride 527, + NIS 0.25 % v/v
Phytotoxicity Stunting for assorted compounds
Measured Property: Phytotoxicity Stunting (%)

> print(dat)
                                   compound  value.units  measured
1  CC(C)(C)[C@@H](O)[C@@H](Cc1ccc(Cl)cc1)n1cncn1 (racemic) [paclobutrazol]            %         5
2  CCOC(=O)C1=NOC(c2ccccc2)(c2ccccc2)C1 [isoxadifen, isoxadifen-ethyl]            %        10
3  O=C1OC(=O)c2cccc3cccc1c23 [napthalic anhydride]            %         7
4  CCOP(=S)(OCC)Oc1nc(Cl)c(Cl)cc1Cl [chlropyrifos]            %        10
5  N#Cc1c(Cl)c(Cl)c(Cl)c(C#N)c1Cl [chlorothalonil]            %         7
6       C[N+]1(C)CCCCC1 [mepiquat-chloride]            %         0

====

System: basil 'Genovese'
Assay: Visual injury of basil after insecticide, fungicide, PGRs, safeners (Example 4)
Conditions: 28 DA-A, rates g ai/ha: chlropyrifos 1120, chlorothalonil 2630, paclobutrazol 3.23, mepiquat-chloride 12.3, Isoxadifen 8, Napthalic anhydride 264, + NIS 0.25 % v/v
Phytotoxicity General for assorted molecules
Measured Property: Phytotoxicity General (%)

> print(dat)
                                   molecule      measured.property  value.units  measured
1            N#Cc1c(Cl)c(Cl)c(Cl)c(C#N)c1Cl  Phytotoxicity General            %        10
2  CC(C)(C)[C@@H](O)[C@@H](Cc1ccc(Cl)cc1)n1cncn1 (racemic)  Phytotoxicity General            %         5
3      CCOC(=O)C1=NOC(c2ccccc2)(c2ccccc2)C1  Phytotoxicity General            %         2
4       C[N+]1(C)CCCCC1 [mepiquat-chloride]  Phytotoxicity General            %         2
5          CCOP(=S)(OCC)Oc1nc(Cl)c(Cl)cc1Cl  Phytotoxicity General            %        10
6  O=C1OC(=O)c2cccc3cccc1c23 [napthalic anhydride]  Phytotoxicity General            %         5

====

System: sweet corn (Zea mays var. rugosa) cultivar 'Incredible'
Assay: Content analysis of sweet corn ears: crude protein, amino acids, detergent fiber, fatty acids, minerals (Example 1)
Assay type: in vivo
Conditions: POST at b59 rates; every treatment incl. check also got atrazine 560 g ai/ha + COC 1% v/v; relative to treated check (atrazine), check=0
Measured Property: Glycine

> print(dat)
                           structure.string       measured
1                   CCNc1nc(Cl)nc(NC(C)C)n1   0 % of check
2  CS(=O)(=O)c1ccc(C(=O)C2C(=O)CCCC2=O)c([N+](=O)[O-])c1   4 % of check
3  COc1cc(OC)nc(NC(=O)NS(=O)(=O)c2ncccc2C(=O)N(C)C)n1  −4 % of check
4  Cc1c(C(=O)c2cnn(C)c2O)ccc(S(C)(=O)=O)c1C1=NOCC1   4 % of check
